# maps each entry to its IC50
# measurement target: LL-diaminopimelate aminotransferase, chloroplastic (Arabidopsis thaliana)
# Sequence (Q93ZN9 whole entry): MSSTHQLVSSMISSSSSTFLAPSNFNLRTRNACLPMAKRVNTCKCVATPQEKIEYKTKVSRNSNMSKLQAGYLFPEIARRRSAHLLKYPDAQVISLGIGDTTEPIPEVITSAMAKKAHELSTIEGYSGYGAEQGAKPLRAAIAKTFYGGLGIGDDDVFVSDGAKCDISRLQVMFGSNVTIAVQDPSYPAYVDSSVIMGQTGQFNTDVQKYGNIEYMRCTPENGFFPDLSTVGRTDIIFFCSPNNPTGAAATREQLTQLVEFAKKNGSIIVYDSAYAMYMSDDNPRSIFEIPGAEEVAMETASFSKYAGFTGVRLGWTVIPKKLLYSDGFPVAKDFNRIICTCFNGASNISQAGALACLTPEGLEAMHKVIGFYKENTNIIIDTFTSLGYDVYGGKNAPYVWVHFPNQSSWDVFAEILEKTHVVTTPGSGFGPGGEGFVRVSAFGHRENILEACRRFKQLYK
# protocol text: Inhibition of Arabidopsis thaliana LL-DAP-AT expressed in Escherichia coli by aminobenzaldehyde-based assay
# experimental setup: read-out: IC50

>  <compound structure string>
COc1ccccc1N1C(=O)/C(=C\c2cc3ccccc3n2Cc2ccccc2)C(=O)NC1=S

>  <measurement target>
LL-diaminopimelate aminotransferase, chloroplastic (Arabidopsis thaliana)

>  <IC50>
62 µM

$$$$
>  <compound structure string>
O=C1NC(=S)S/C1=C\c1ccccc1O

>  <measurement target>
LL-diaminopimelate aminotransferase, chloroplastic (Arabidopsis thaliana)

>  <IC50>
> 200 µM

$$$$
>  <compound structure string>
C=CCN1C(=O)NC(=O)/C(=C/c2ccc(-c3ccc(C(=O)OCC)cc3)o2)C1=O

>  <measurement target>
LL-diaminopimelate aminotransferase, chloroplastic (Arabidopsis thaliana)

>  <IC50>
> 200 µM

$$$$
>  <compound structure string>
CC(=O)c1ccc(Nc2nc(-c3cc4ccccc4oc3=O)cs2)cc1

>  <measurement target>
LL-diaminopimelate aminotransferase, chloroplastic (Arabidopsis thaliana)

>  <IC50>
> 200 µM

$$$$
>  <compound structure string>
CCOC(=O)C1=C(Nc2ccc(OC)cc2)S/C(=C\c2ccc(N(C)C)cc2)C1=O

>  <measurement target>
LL-diaminopimelate aminotransferase, chloroplastic (Arabidopsis thaliana)

>  <IC50>
> 200 µM

$$$$
>  <compound structure string>
CCN1C(=O)/C(=C/c2ccccc2)SC1=S

>  <measurement target>
LL-diaminopimelate aminotransferase, chloroplastic (Arabidopsis thaliana)

>  <IC50>
> 200 µM

$$$$
>  <compound structure string>
Cc1ccc(NC(=O)/C(C#N)=C/c2ccc(N(C)C)o2)cc1C

>  <measurement target>
LL-diaminopimelate aminotransferase, chloroplastic (Arabidopsis thaliana)

>  <IC50>
> 200 µM

$$$$
>  <compound structure string>
CC(=O)NN1C(=O)/C(=C/c2ccc(-c3ccc([N+](=O)[O-])cc3)o2)SC1=S

>  <measurement target>
LL-diaminopimelate aminotransferase, chloroplastic (Arabidopsis thaliana)

>  <IC50>
73 µM

$$$$
>  <compound structure string>
O=C1OC(c2ccccc2Cl)=N/C1=C/c1ccc(OC(=O)c2ccccc2Cl)c(O)c1

>  <measurement target>
LL-diaminopimelate aminotransferase, chloroplastic (Arabidopsis thaliana)

>  <IC50>
81 µM

$$$$
>  <compound structure string>
C=C(C)COc1ccc2c(c1)oc(=O)c1cc(OC)ccc12

>  <measurement target>
LL-diaminopimelate aminotransferase, chloroplastic (Arabidopsis thaliana)

>  <IC50>
> 200 µM

$$$$
